Entry source: the NIST ThermoML archive (doi:10.1021/je5002945)

Please provide measured mass density for the entries that follow.
# Assay setup: 318.15 K; 101.33 kPa; Liquid; Vibrating tube method
Numbers only, in kg/m3.

molecule="CCCCN(C=O)CCCC [N,N-dibutylformamide]" assay_endpoint="mass density" recorded_number=859.01

Hello, I would appreciate it if you could give mass density for each entry below.
1. CN(C)C=O [dimethylformamide]
2. CNC=O [N-methylformamide]

(A)
[924.06, 980.88]

Hello, I would appreciate it if you could give mass density for each entry below.
1. CCNC=O [N-ethylformamide]
2. CC(=O)N(C)C [N,N-dimethylethanamide]

(A)
930.45
917.23

###

# Assay setup: 308.15 K; 101.33 kPa; Liquid; Vibrating tube method
Label rule, in plain words: mass density of 900 kg/m3 and up is true (1), under 900 kg/m3 is false (0).

Example entries begin here.
molecule="CNC=O [N-methylformamide]" class="true (1)"
molecule="CCCCN(C=O)CCCC [N,N-dibutylformamide]" class="false (0)"
molecule="CN(C)C=O [dimethylformamide]" class="true (1)"

Field: next molecule
(Q) Hi, just wondering whether CCNC=O [N-ethylformamide] shows mass density of 900 kg/m3 or higher.
(A) true (1)

###

# Assay setup: 303.15 K; 101.33 kPa; Liquid; Vibrating tube method
± gives the expanded uncertainty stated by the source.
Assay endpoint: mass density

Previously resolved entries follow.
molecule="CNC=O [N-methylformamide]" assay_endpoint="mass density" result="994.49 ± 0.23 kg/m3"
molecule="CCCCN(C=O)CCCC [N,N-dibutylformamide]" assay_endpoint="mass density" result="871.17 ± 0.23 kg/m3"
molecule="CCNC=O [N-ethylformamide]" assay_endpoint="mass density" result="943.29 ± 0.23 kg/m3"

Hello, I would appreciate it if you could give mass density for each entry below.
1. CC(=O)N(C)C [N,N-dimethylethanamide]
2. CN(C)C=O [dimethylformamide]

(A)
931.62 ± 0.23 kg/m3
939 ± 0.07 kg/m3

###

Please provide measured mass density for the entries that follow.
# Assay setup: 323.15 K; 101.33 kPa; Liquid; Vibrating tube method
One number for each entry, in kg/m3.

Previously resolved entries follow.
compound="CCNC=O [N-ethylformamide]" output_unit=kg/m3 recorded_number=926.06
compound="CCCCN(C=O)CCCC [N,N-dibutylformamide]" output_unit=kg/m3 recorded_number=854.82
compound="CNC=O [N-methylformamide]" output_unit=kg/m3 recorded_number=976.24
compound="CC(=O)N(C)C [N,N-dimethylethanamide]" output_unit=kg/m3 recorded_number=912.23

// mass density value for CN(C)C=O [dimethylformamide] : 918.96

###

# Assay setup: 293.15 K; 101.33 kPa; Liquid; Vibrating tube method
± gives the expanded uncertainty stated by the source.
Assay endpoint: mass density

Previously resolved entries follow.
compound="CC(=O)N(C)C [N,N-dimethylethanamide]" result="940.92 ± 0.23 kg/m3"
compound="CNC=O [N-methylformamide]" result="1003.35 ± 0.23 kg/m3"
compound="CCNC=O [N-ethylformamide]" result="951.59 ± 0.23 kg/m3"

Hello, I would appreciate it if you could give mass density for each entry below.
1. CCCCN(C=O)CCCC [N,N-dibutylformamide]
2. CN(C)C=O [dimethylformamide]

(A)
1: 879.05 ± 0.23 kg/m3; 2: 948.72 ± 0.07 kg/m3

###

# Assay setup: 313.15 K; 101.33 kPa; Liquid; Vibrating tube method
Assay endpoint: mass density (kg/m3)
Answers are plain numbers, in kg/m3.

Previously resolved entries follow.
compound="CCCCN(C=O)CCCC [N,N-dibutylformamide]" output_unit=kg/m3 recorded_number=863.11
compound="CCNC=O [N-ethylformamide]" output_unit=kg/m3 recorded_number=934.78
compound="CC(=O)N(C)C [N,N-dimethylethanamide]" output_unit=kg/m3 recorded_number=922.09
compound="CN(C)C=O [dimethylformamide]" output_unit=kg/m3 recorded_number=929.13

Kindly review the next compound as well.
// mass density value for CNC=O [N-methylformamide] : 985.47

###

# Assay setup: 298.15 K; 101.33 kPa; Liquid; Vibrating tube method
Please provide measured mass density for the entries that follow.
Give bare numbers, in kg/m3.

Previously resolved entries follow.
compound="CCCCN(C=O)CCCC [N,N-dibutylformamide]" recorded_number=875.12
compound="CNC=O [N-methylformamide]" recorded_number=998.91
compound="CC(=O)N(C)C [N,N-dimethylethanamide]" recorded_number=936.3

Hello, I would appreciate it if you could give mass density for each entry below.
1. CCNC=O [N-ethylformamide]
2. CN(C)C=O [dimethylformamide]

(A)
1. 947.48
2. 943.86
